Tested on: Liver
Method summary: Metabolic stability in mouse liver microsomes assessed as metabolic rate per mg protein preincubated for 5 mins followed by NADPH addition measured up to 30 mins by LC-MS/MS analysis
Assay type: ADME, microsome
Condition context: 0.5 h
Assay endpoint: Drug metabolism (nmol/min/mg)

CCCn1c(=O)c2[nH]c(-c3cnn(CC4CC(=O)N(c5cccc(OC(F)(F)F)c5)C4)c3)nc2n(CC)c1=O (configuration not stated); 0.25
CCCn1c(=O)c2[nH]c(-c3cnn(CC4CC(=O)N(c5ccc(OC)cc5)C4)c3)nc2n(CC)c1=O (configuration not stated); 0.07
CCCn1c(=O)c2[nH]c(-c3cnn(CC(O)C4CC(=O)N(c5cccc(C(F)(F)F)c5)C4)c3)nc2n(CCC)c1=O (configuration not stated); 0.22
CCCn1c(=O)c2[nH]c(-c3cnn(CC(=O)N4CCN(c5ccc(F)cc5F)CC4)c3)nc2n(CCC)c1=O; 0.23
CCCn1c(=O)c2[nH]c(-c3cc(OCC4CC(=O)N(c5ccc(C(F)(F)F)cc5)C4)no3)nc2n(CCC)c1=O (configuration not stated); 0.04

[a] CCCn1c(=O)c2[nH]c(-c3cnn(CCC4CC(=O)N(c5cccc(C(F)(F)F)c5)C4)c3)nc2n(CCC)c1=O (configuration not stated)
[b] CCCn1c(=O)c2[nH]c(-c3cnn(CC4CC(=O)N(c5ccc(F)cc5)C4)c3)nc2n(CC)c1=O (configuration not stated)
Problem: Compare a and b and name the one whose reported Drug metabolism is smaller. Respond using the label that marks the chosen record.
Solution: b

[1] CCCn1c(=O)c2[nH]c(-c3cnn(CC4CC(=O)N(c5ccc(F)cc5F)C4)c3)nc2n(CCC)c1=O (configuration not stated)
[2] CCCn1c(=O)c2[nH]c(-c3cnn(CC4CC(=O)N(c5ccc(OC)cc5)C4)c3)nc2n(CCC)c1=O (configuration not stated)
[3] CCCn1c(=O)c2[nH]c(-c3ccc(OCC4CC(=O)N(c5cccc(C(F)(F)F)c5)C4)cc3)nc2n(CCC)c1=O (configuration not stated)
[4] CCCn1c(=O)c2[nH]c(-c3ccc(OCC4CC(=O)N(c5cccc(C(F)(F)F)c5)C4)nc3)nc2n(CCC)c1=O (configuration not stated)
[5] CCCn1c(=O)c2[nH]c(-c3cnn(CC(=O)N4CCN(c5cccc(C(F)(F)F)c5)CC4)c3)nc2n(CCC)c1=O
Problem: Parameters: sort_field (Drug metabolism), sort_dir (desc). In plain terms: list the labels in the order you were asked to.
Solution: 1, 2, 3, 5, 4
(1: 0.48 nmol/min/mg, 2: 0.22 nmol/min/mg, 3: 0.06 nmol/min/mg, 5: 0.04 nmol/min/mg, 4: 0 nmol/min/mg)

[A] CCCn1c(=O)c2[nH]c(-c3cnn(C(C)C4CC(=O)N(c5cccc(C(F)(F)F)c5)C4)c3)nc2n(CCC)c1=O (configuration not stated)
[B] CCCn1c(=O)c2[nH]c(-c3cnn(CC4CC(=O)N(c5ccc(F)cc5)C4)c3)nc2n(CCC)c1=O (configuration not stated)
Problem: Compare A and B and name the one whose reported Drug metabolism is smaller. Respond using the label that marks the chosen record.
Solution: B
(B: 0.19 nmol/min/mg, A: 0.59 nmol/min/mg)

Source of measurements: ChEMBL document CHEMBL3994582
